The reported numbers originate from patent US20140112915A1.

- target.or.system: T1, Native human IL-18 (human, UniProt Q14116 37-193)
- T1 sequence: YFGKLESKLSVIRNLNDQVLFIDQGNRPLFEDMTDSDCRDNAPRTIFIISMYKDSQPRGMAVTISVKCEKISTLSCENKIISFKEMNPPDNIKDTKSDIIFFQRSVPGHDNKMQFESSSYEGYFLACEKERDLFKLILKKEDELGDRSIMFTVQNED
- assay.text: cell-based or functional assay
quantity.kind: IC50, inhibition of IFN-γ release, PBMC, Native IL-18 (LPS/IL-12) (nM)
Write down the numeric answer in nM and omit the unit.

Known results for binders:
Recombinant human IL-18 Binding Protein-IgG1 Fc (Fc fusion, UniProt O95998 31-194, looked up, not shown: a dimerising Fc or GST) TPVSQTTTAATASVRSTKDPCPSQPPVFPAAKQCPALEVTWPEVEVPLNGTLSLSCVACSRFPNFSILYWLGNGSFIEHLPGRLWEGSTSRERGSTGTQLCKALVLEQLTPALHSTNFSCVLVDPEQVVQRHVVLAQLWAGLRATLPPTQEALPSSHSSPQQQG : 0.17
MOR13341 (antibody, human IgG1, kappa, L234A L235A, V domains shown) VH: QVQLVQSGAEVKKPGSSVKVSCKASGGTFSTFSISWVRQAPGQGLEWMGGIIPIFGTANYAQKFQGRVTITADESTSTAYMELSSLRSEDTAVYYCARGGYGGYYYFDYWGQGTLVTVSS VL: DIQMTQSPSSLSASVGDRVTITCRASQSISNRLNWYQQKPGKAPKLLIYKGSTLQSGVPSRFSGSGSGTDFTLTISSLQPEDFATYYCQQHKVWLTTFGQGTKVEIKR : 0.8

Kindly consider the entry below.
Query: Bench note: what IC50, inhibition of IFN-γ release, PBMC, Native IL-18 (LPS/IL-12) did MOR13342 (antibody, human IgG1, kappa, L234A L235A, V domains shown) VH: QVQLVQSGAEVKKPGSSVKVSCKASGGTFSTFSISWVRQAPGQGLEWMGGIIPIFGTANYAQKFQGRVTITADESTSTAYMELSSLRSEDTAVYYCARGGYGGYYYFDYWGQGTLVTVSS VL: DIQMTQSPSSLSASVGDRVTITCRASQSISNRLNWYQQKPGKAPKLLIYKGSTLQSGVPSRFSGSGSGTDFTLTISSLQPEDFATYYCQQHYVWSTTFGQGTKVEIKR show?
Result: 0.5
